assay: Activity of the substrate is measured as the ratio of 100*Vmax/Km
OBSERVED PROPERTY: Ratio

COMPOUND | MEASUREMENT
NCC(O)c1ccc2c(c1)Cc1ccccc1-2 (stereo not given) | 6.7
NC[C@@H](O)c1ccccc1 | 3.1
NCC(O)c1cccc2c1Cc1ccccc1-2 (stereo not given) | 0.015
NCC(O)c1cccc(-c2ccccc2)c1 (stereo not given) | 0.07
NCC(O)c1ccc(-c2ccccc2)cc1 (stereo not given) | 5.2

---

target: Phenylethanolamine N-methyltransferase (Bos taurus); test: In vitro inhibition of compound towards phenylethanolamine N-methyltransferase(PNMT) isolated from bovine adrenal glands
Sequence (P10938 whole entry): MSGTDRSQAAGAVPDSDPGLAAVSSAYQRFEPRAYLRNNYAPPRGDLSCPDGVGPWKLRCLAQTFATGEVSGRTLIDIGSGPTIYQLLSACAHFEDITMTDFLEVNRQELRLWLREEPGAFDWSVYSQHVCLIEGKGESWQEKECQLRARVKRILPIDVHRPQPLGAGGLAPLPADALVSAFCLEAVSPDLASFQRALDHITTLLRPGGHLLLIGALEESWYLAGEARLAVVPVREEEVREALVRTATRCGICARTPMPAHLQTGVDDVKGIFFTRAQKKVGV
OBSERVED PROPERTY: Ki (µM)

COMPOUND | OBSERVED PROPERTY | MEASUREMENT UNITS | MEASUREMENT
CC(N)c1cccc2c1Cc1ccccc1-2 (configuration not stated) | Ki | µM | 4.14
CC(N)c1ccc2c(c1)Cc1ccccc1-2 (configuration not stated) | Ki | µM | 185
